// data source = ChEMBL document CHEMBL1129246

species on record: Cavia porcellus; experiment: Activity of inotropic negative potency on stimulated guinea pig left atrium.; assay type: functional; details: Cardiac atrium, read-out: ED50 (the source's name)
measuredEndpoint: EC50 (nM)
The figure you give is taken to be in nM; do not add the unit.

Query: Give the reported EC50 for this molecule. "COc1ccc([C@@H]2Sc3ccccc3N(CCN(C)C)C(=O)[C@@H]2OC(C)=O)cc1"
Response: 790

* * *

Property: IC50; scope: individual compounds
molecular target: Translocator protein (Rattus norvegicus); test: Ability to inhibit [3H]-PK 11195 binding to peripheral-type benzodiazepine receptor(PBR) in rat cerebral cortex homogenate.; assay type: tissue-based; settings: read-out: IC50
Sequence (P16257 whole entry, looked up): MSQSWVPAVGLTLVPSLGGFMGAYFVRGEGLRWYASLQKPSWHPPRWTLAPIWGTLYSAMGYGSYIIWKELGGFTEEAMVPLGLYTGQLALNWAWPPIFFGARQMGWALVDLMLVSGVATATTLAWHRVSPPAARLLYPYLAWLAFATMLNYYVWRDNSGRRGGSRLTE

| compound | measuredEndpoint | reportedValue |
| --- | --- | --- |
| CC(=O)OC1=C(c2ccccc2)Sc2ccc(Cl)cc2-n2c(CN(C)C)ccc21 | IC50 | > 2 µM |
| CC(=O)OC1=C(c2ccccc2)Sc2ccccc2-n2c(CN(C)C)ccc21 | IC50 | > 2 µM |

Query: Note IC50 for the compound shown: "CC(=O)OC1=C(c2ccccc2)Sc2ccc(Cl)cc2-n2cccc21"
Response: 0.56 µM

Query: Please list IC50 recorded for the compound "COc1ccc(C2=C(OC(C)=O)c3ccc(CN(C)C)n3-c3cc(Cl)ccc3S2)cc1"
Response: > 2 µM

Query: Could you please provide reported IC50 for COc1ccc(C2Sc3ccccc3-n3c(CN(C)C)ccc32)cc1 (stereo not given) ? Thanks!
Response: > 2 µM
